Test system: rainbow trout (Oncorhynchus mykiss)
Experiment: Contribution of tissues to fish body burden
Format: in vivo
Details: in vivo
Please assign -1 whenever % contribution to body burden, Mucus is at or above 8%, and 1 whenever it is below.

COMPOUND: CCCCCCCCCCCCCCCCNC [S16, N-methylhexadecylamine]
LABEL: 1
//
COMPOUND: CCCCCCCCCCCCNC [S12, N-methyldodecylamine]
LABEL: 1
//
COMPOUND: CCCCCCCCCCCCCCN(C)C [T14, N,N-dimethyltetradecylamine]
LABEL: -1
//
COMPOUND: CCCCCCCCCC[N+](C)(C)C [Q10, N,N,N-trimethyl-1-decylammonium]
LABEL: -1
//
COMPOUND: CCCCCCCCCCCCCC[N+](C)(C)C [Q14, N,N,N-trimethyl-1-tetradecylammonium]
LABEL: -1
